# TARGET_OF_ASSAY: T1, recombinant human TfR1 (transferrin receptor protein 1) (human, UniProt P02786 89-760)
# T1 construct: Recombinant protein in SPR and ELISA; they were assigned to this molecule; also called hTfR1; huTfR1
# ASSAY_NAME: kinetic analysis (Biacore), Table 7; TfR1 species not stated
OBSERVABLE: Kd (nM)
Could you give me the number in nM? Just the number is fine.

Item: humanized anti-TfR Fab 3A4 VH3 (N54S)/Vκ4 (Fab, V domains shown, also called 3A4 (VH3-N54S/Vk4)) VH: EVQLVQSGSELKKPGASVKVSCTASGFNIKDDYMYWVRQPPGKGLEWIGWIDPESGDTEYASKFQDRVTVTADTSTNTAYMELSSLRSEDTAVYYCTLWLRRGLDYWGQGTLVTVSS VL: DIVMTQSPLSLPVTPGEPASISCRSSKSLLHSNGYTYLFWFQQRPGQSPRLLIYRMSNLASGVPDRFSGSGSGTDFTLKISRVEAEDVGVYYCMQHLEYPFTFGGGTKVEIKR | Kd: 1.34
